protocol-text: Solubility of compound in fasted state simulated intestinal fluid

{"query-smiles": "O=S(=O)(Nc1nnc2n1CCN(C1CCN(Cc3ccccc3-c3ccc(Cl)cc3)CC1)C2)c1ccc(N[C@H](CCN2CCOCC2)CSc2ccccc2)c(S(=O)(=O)C(F)(F)F)c1", "solubility": "9 µM"}
{"query-smiles": "CN(C)CC[C@H](CSc1ccccc1)Nc1ccc(S(=O)(=O)Nc2cccc3cc(N4CCN(Cc5ccccc5-c5ccc(Cl)cc5)CC4)cnc23)cc1[N+](=O)[O-]", "solubility": "44 µM"}
{"query-smiles": "O=S(=O)(Nc1ncnc2c1CN(C1CCN(Cc3ccccc3-c3ccc(Cl)cc3)CC1)C2)c1ccc(N[C@H](CCN2CCOCC2)CSc2ccccc2)c(S(=O)(=O)C(F)(F)F)c1", "solubility": "70 µM"}
